cleaved RNA product abundance overview
Test system: Bacillus subtilis
Assay: cleaved RNA product abundance (RNA/gDNA barcode ratio) relative to median wild-type variant (ratio to wild type); higher = more accumulation of the downstream cleavage product
Details: experiment (reporter, strain, medium): exp 4a: truncated aprE reporter, strain BJT201 with 2% xylose (RNase J1 expressed); cleavage site: cggR-gapA (positions -7 to +36 mutated)
Just the number, please, no unit attached.

ACAGACGAAGGAGCCGCAAAAAAGTTATTAAGGGCTGAATAATCCCTCAATATAAATATCTCTCACTTATTTAAA : 0.694
ACAGACGAAGGAGCCGCAAAGAAGTAATTAAGGGATGAATAATCCCTCAATATAAAAATCTCTCACTTATTTAAA : 0.282
ACAGACGAAGGAGCCGCAAAGAAGTAATTAAGGGATGACTAATCCCTCAATATAAATATCTCTCACTTATTTAAA : 0.289
ACAGACGAAGGAGCCGCAAAGAAGTTATTAAGGGATGAATAATCCCTCAATATATATTTCTCTCACTTATTTAAA : 0.561

stdin: Entry under review: `ACAGACGAAGGAGCCGCAAAGAAGTTATTAAAGGATGAATAATCCCTCAATTTAAATATCTCTCACTTATTTAAA` . Reported cleaved RNA product abundance?
stdout: 0.0949

###

cleaved RNA product abundance overview
Test system: Bacillus subtilis
Experiment: cleaved RNA product abundance (RNA/gDNA barcode ratio) relative to median wild-type variant (ratio to wild type); higher = more accumulation of the downstream cleavage product
Conditions: experiment (reporter, strain, medium): exp 8a: truncated aprE reporter, strain BJT201 with 2% xylose (RNase J1 expressed); cleavage site: glnRA (positions -5 to +31 mutated)
Just the number, please, no unit attached.

Illustrative cases are given below, each with its answer.
CGACATGTCCCGCTTCTTTCATTAATCCGTTAGCAACTATTTAGCTATATACATTTACCTTTTAAGAGGAGGAAT : 1.01
CGACATGTCCCGCTTCTTTCATTACTCCGTTAGCAACTGTTTTGCTATATAAATTTACCTTTTAAGAGGAGGAAT : 0.276
CGACATGTCCCGCTTCTTTCATTAATCCGTTACCAACTGTTTTGCTATATACATCTACCTTTTAAGAGGAGGAAT : 0.23
CGACATGTCCCGCTTCTTTCATTAATCCGTTAGCAACTGTTTTACTATATACATTCACCTTTTAAGAGGAGGAAT : 0.4

stdin: Entry under review: `CGACATGTCCCGCTTCTTTCATTAATCCGTTAGCAACTGTTTTGCTATATACAATTAACTTTTAAGAGGAGGAAT` . Reported cleaved RNA product abundance?
stdout: 2.58

stdin: Entry under review: `CGACATGTCCCGCTTCTTTCATTAAACCGTTAGCAACTGTTTTGCTATATCCATTTACCTTTTAAGAGGAGGAAT` . Reported cleaved RNA product abundance?
stdout: 0.0869

stdin: Entry under review: `CGACATGTCCCGCTTCTTTCATTAATCCGTTATCAACTGTTTTGCTATATACAGTTACCTTTTAAGAGGAGGAAT` . Reported cleaved RNA product abundance?
stdout: 0.286

###

Tested on: Bacillus subtilis
Assay: cleaved RNA product abundance (RNA/gDNA barcode ratio) relative to median wild-type variant (ratio to wild type); higher = more accumulation of the downstream cleavage product
Settings: experiment (reporter, strain, medium): exp 2b: truncated aprE reporter, strain BJT200; cleavage site: cggR-gapA (positions -7 to +36 mutated)
measured-quantity: cleaved RNA product abundance
Just the number, please, no unit attached.

Illustrative cases are given below, each with its answer.
ACAGACGAAGGAGCCGCAAAGAAGTTATAAAGGGATGAATAATCCCTTAATATAAATATCTCTCACTTATTTAAA : 0.56
ACAGACGAAGGAGCCGCAAAGAAGTTATTAAGGAATGAATAATCCCTCAATATATATATCTCTCACTTATTTAAA : 0.0862
ACAGACGAAGGAGCCGCAAAGAAGTTATCAAGGGATGAATAATCCCTCATTATAAATATCTCTCACTTATTTAAA : 0.216
ACAGACGAAGGAGCCGCAAAGAAGTTAATAAGGGATGAATAATCCCTCAATATAAAGATCTCTCACTTATTTAAA : 0.182
ACAGACGAAGGAGCCGCAAAGAAGTTATTAAGGGATAAATAATCCCTCAATATAAATCTCTCTCACTTATTTAAA : 0.559
ACAGACGAAGGAGCCGCAAAGAAGTTATTAAGGTACGAATAATCCCTCAATATAAATATCTCTCACTTATTTAAA : 0.0971

Now turn to the next sequence.
stdin: Observed cleaved RNA product abundance on Bacillus subtilis for `ACAGACGAAGGAGCCGCAAAAAAGTTATTAAGGGATGAATAATCCCTCGATATAAATATCTCTCACTTATTTAAA` , please.
stdout: 0.396

###

Tested on: Bacillus subtilis
Assay: cleaved RNA product abundance (RNA/gDNA barcode ratio) relative to median wild-type variant (ratio to wild type); higher = more accumulation of the downstream cleavage product
Details: experiment (reporter, strain, medium): exp 2b: truncated aprE reporter, strain BJT200; cleavage site: cggR-gapA (positions -7 to +36 mutated)
cleaved RNA product abundance overview

Illustrative cases are given below, each with its answer.
ACAGACGAAGGAGCCGCAAAAAAGTTATTAAGAGATGAATAATCCCTCAATATAAATATCTCTCACTTATTTAAA : 0.126
ACAGACGAAGGAGCCGCGAAGAAGTTATTAAGGGATGAATAATCCCTCAATATAAATATCTCTCACTTATTTAAA : 0.919
ACAGACGAAGGAGCCGCAAATAAGTTATTAAGGGATGAATAATACCTCAATATAAATATCTCTCACTTATTTAAA : 0.112

Now turn to the next sequence.
stdin: Entry under review: `ACAGACGAAGGAGCCGCAAAGAAGTTATTAACGGATGAATAATCCCTCATTATAAATATCTCTCACTTATTTAAA` . Reported cleaved RNA product abundance?
stdout: 0.128

###

cleaved RNA product abundance overview
Test system: Bacillus subtilis
Assay: cleaved RNA product abundance (RNA/gDNA barcode ratio) relative to median wild-type variant (ratio to wild type); higher = more accumulation of the downstream cleavage product
Conditions: experiment (reporter, strain, medium): exp 4a: truncated aprE reporter, strain BJT201 with 2% xylose (RNase J1 expressed); cleavage site: cggR-gapA (positions -7 to +36 mutated)

Illustrative cases are given below, each with its answer.
ACAGACGAAGGAGCCGCAAAGAAGTTATTAAGGGATGAAAAACCCCTCAATATAAATATCTCTCACTTATTTAAA : 0.485
ACAGACGAAGGAGCCGCAAAGAAGTTATTAAGTGATGAATAATCACTCAATATAAATAACTCTCACTTATTTAAA : 1.16
ACAGACGAAGGAGCCGCAATGAAGTTATTAAGTGATGAATAATCCGTCAATATAAATATCTCTCACTTATTTAAA : 0.0953
ACAGACGAAGGAGCCGCAAAGAAGTTATTAAGAGATGAAAAATACCTCAATATAAATATCTCTCACTTATTTAAA : 0.146
ACAGACGAAGGAGCCGCAAAGAAGTTATTAAAGGTTGAATAATCCCTCAATATAAATATCTCTCACTTATTTAAA : 0.0853
ACAGACGAAGGAGCCGCAAAGAAGTTATTAAGTGATGAATAATCCCTCAACATAAATATCTCTCACTTATTTAAA : 0.0935

Now turn to the next sequence.
stdin: Observed cleaved RNA product abundance on Bacillus subtilis for `ACAGACGAAGGAGCCGCAAAGTAGTTATTAAGGGATGAATAATCACTCAATATAAATATCTCTCACTTATTTAAA` , please.
stdout: 0.183

###

Tested on: Bacillus subtilis
Experiment: cleaved RNA product abundance (RNA/gDNA barcode ratio) relative to median wild-type variant (ratio to wild type); higher = more accumulation of the downstream cleavage product
Conditions: experiment (reporter, strain, medium): exp 8a: truncated aprE reporter, strain BJT201 with 2% xylose (RNase J1 expressed); cleavage site: glnRA (positions -5 to +31 mutated)
cleaved RNA product abundance overview
Just the number, please, no unit attached.

stdin: Entry under review: `CGACATGTCCCGCTTCTTTCATTAATCCGTTAGCAAATTTTTTGCTATATACATTTACCTTTTAAGAGGAGGAAT` . Reported cleaved RNA product abundance?
stdout: 1.19

stdin: Entry under review: `CGACATGTCCCGCTTCTTTCATTAATCCGTTAGCAACTGTTTGGCTATATACATTTACGTTTTAAGAGGAGGAAT` . Reported cleaved RNA product abundance?
stdout: 0.403

stdin: Entry under review: `CGACATGTCCCGCTTCTTTCATTACTCCGTTAGCAACTGTTTTGCTATAGACATTTACCTTTTAAGAGGAGGAAT` . Reported cleaved RNA product abundance?
stdout: 0.738

stdin: Entry under review: `CGACATGTCCCGCTTCTTTCATTAATCCGTTAGCAACTGTTTTGCTTTATACATTTACCTTTTAAGAGGAGGAAT` . Reported cleaved RNA product abundance?
stdout: 0.338

stdin: Entry under review: `CGACATGTCCCGCTTCTTTCATTAATCCATTAGCAACTGATTTGCTATATACATTTACCTTTTAAGAGGAGGAAT` . Reported cleaved RNA product abundance?
stdout: 0.89

stdin: Entry under review: `CGACATGTCCCGCTTCTTTCATTAATCCGTTAGCTACTGTTTTGCAATATACATTTACCTTTTAAGAGGAGGAAT` . Reported cleaved RNA product abundance?
stdout: 0.187

stdin: Entry under review: `CGACATGTCCCGCTTCTTTCATTAATCCGTAAGCAACTGTTTTGCTATGTACATTTACCTTTTAAGAGGAGGAAT` . Reported cleaved RNA product abundance?
stdout: 0.0895
